This collection of values is drawn from patent US20190359693A1.

Molecular target: hemagglutinin (HA) of influenza virus H1N1 A/Puerto Rico/8/34-MA (influenza A virus)
Assay: cell-based or functional assay
observed.property: neutralization titer (nM)

binder	observed.property	data.value
MD1213 (VHH) EVQLVESGGGLVQAGGSLKLSCAASGRTYAMGWFRQAPGKEREFVAHINALGTRTYYSDSVKGRFTISRDNAKNTEYLEMNNLKPEDTAVYYCTAQGQWRAAPVAVAAEYEFWGQGTQVTVSSAAAGGGGSGGGGSGGGGSEVQLVESGGGLVQAGGSLKLSCAASGRTYAMGWFRQAPGKEREFVAHINALGTRTYYSDSVKGRFTISRDNAKNTEYLEMNNLKPEDTAVYYCTAQGQWRAAPVAVAAEYEFWGQGTQVTVSS	neutralization titer	27.8
MD1215 (VHH) EVQLVESGGGLVQAGGSLKLSCAASGRTYAMGWFRQAPGKEREFVAHINALGTRTYYSDSVKGRFTISRDNAKNTEYLEMNNLKPEDTAVYYCTAQGQWRAAPVAVAAEYEFWGQGTQVTVSSAAAGGGGSGGGGSGGGGSGGGGSGGGGGGSGGGGSGGGGSGGGGSGGGGSGGGGSGGGGSEVQLVESGGGLVQAGGSLKLSCAASGRTYAMGWFRQAPGKEREFVAHINALGTRTYYSDSVKGRFTISRDNAKNTEYLEMNNLKPEDTAVYYCTAQGQWRAAPVAVAAEYEFWGQGTQVTVSS	neutralization titer	39.6
SD1036 + SD1038 (protein) VHH 1: EVQLVESGGGLVQAGGSLKLSCAASGRTYAMGWFRQAPGKEREFVAHINALGTRTYYSDSVKGRFTISRDNAKNTEYLEMNNLKPEDTAVYYCTAQGQWRAAPVAVAAEYEFWGQGTQVTVSS VHH 2: EVQLVESGGGLVQPGGSLRLSCAVSISIFDIYAMDWYRQAPGKQRDLVATSFRDGSTNYADSVKGRFTISRDNAKNTLYLQMNSLKPEDTAVYLCHVSLYRDPLGVAGGMGVYWGKGALVTVSS	neutralization titer	6.8
MD1214 (bispecific antibody) EVQLVESGGGLVQPGGSLRLSCAVSISIFDIYAMDWYRQAPGKQRDLVATSFRDGSTNYADSVKGRFTISRDNAKNTLYLQMNSLKPEDTAVYLCHVSLYRDPLGVAGGMGVYWGKGALVTVSSAAAGGGGSGGGGSGGGGSEVQLVESGGGLVQAGGSLKLSCAASGRTYAMGWFRQAPGKEREFVAHINALGTRTYYSDSVKGRFTISRDNAKNTEYLEMNNLKPEDTAVYYCTAQGQWRAAPVAVAAEYEFWGQGTQVTVSS	neutralization titer	7.5
MD1216 (bispecific antibody) EVQLVESGGGLVQPGGSLRLSCAVSISIFDIYAMDWYRQAPGKQRDLVATSFRDGSTNYADSVKGRFTISRDNAKNTLYLQMNSLKPEDTAVYLCHVSLYRDPLGVAGGMGVYWGKGALVTVSSAAAGGGGSGGGGSGGGGSGGGGSGGGGGGSGGGGSGGGGSGGGGSGGGGSGGGGSGGGGSEVQLVESGGGLVQAGGSLKLSCAASGRTYAMGWFRQAPGKEREFVAHINALGTRTYYSDSVKGRFTISRDNAKNTEYLEMNNLKPEDTAVYYCTAQGQWRAAPVAVAAEYEFWGQGTQVTVSS	neutralization titer	9.7
